Tested on: MYLK4
Conditions: concentration: 1 μM, replicates: in singlicate; n = 1;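 also: KINOMEscan kinase panel screen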
Recorded Endpoint: %Inh

These recorded examples may help you get a feel for the data.
- Smiles Data: "CS(=O)(=O)c1cccc(CNc2nc(Nc3ccc4c(c3)CCC(=O)N4)ncc2C(F)(F)F)c1"
  Result Value: "0%"
- Smiles Data: "COC(=O)Nc1nc2ccc(Oc3ccc(CC(=O)Nc4cc(C(F)(F)F)ccc4F)cc3)cc2[nH]1"
  Result Value: "0%"
- Smiles Data: "Cn1cc(-c2cnc(N)c3c(-c4ccc5c(c4)CCN5C(=O)Cc4ccccc4)csc23)cn1"
  Result Value: "0%"

The following compounds each have a reported value; give each one's %Inh.
1. CN(c1ccc2c(c1)nc(NCc1ccccc1)n2C)c1ccnc(Nc2ccc(CS(C)(=O)=O)cc2)n1.Cl
2. COc1cc(Nc2ccnc3cc(-c4ccncc4)ccc23)cc(OC)c1OC.Cl
3. CN(c1ccc(F)c(NC(=O)c2cccc(OC(C)(C)C#N)c2Cl)c1)c1ccc2nc(NC(=O)C3CC3)sc2n1

Reply:
1: 0%; 2: 0%; 3: 0%

The following compounds each have a reported value; give each one's %Inh.
1. Cc1cccc(Nc2nc(N[C@H]3CCCC[C@H]3N)ncc2C(N)=O)c1.Cl
2. O=C(Nc1n[nH]c2nc(-c3ccccc3O)ccc12)C1CC1

Reply:
1. 93.8%
2. 0%

----------
I'd appreciate it if you could supply %Inh values for the items below.
System: ASK1
Construct: gene MAP3K5
Conditions: concentration: 1 μM, replicates: in singlicate; n = 1
One number for each entry, in %.

These recorded examples may help you get a feel for the data.
- Compound: "O=C1NC(=O)C(c2ccccc2Cl)=C1Nc1cccc(Cl)c1"
  Result Value: 8
- Compound: "Cn1cc(-c2ccc3c(c2)CCN3C(=O)Cc2cc(F)cc(F)c2F)c2c(N)ncnc21"
  Result Value: 0
- Compound: "Fc1cc(Cl)ccc1Nc1ccnc2cc(-c3ccc(CN4CCSCC4)o3)ccc12"
  Result Value: 0

The following compounds each have a reported value; give each one's %Inh.
1. Cc1cc(-c2ccnc(Nc3cccc(C#N)c3)n2)cc(C)c1O
2. Cn1cc(-c2cnc(N)c3c(-c4ccc5c(c4)CCN5C(=O)Cc4ccccc4)csc23)cn1
3. COc1cc(Nc2ccnc3cc(-c4ccncc4)ccc23)cc(OC)c1OC.Cl
4. Cl.Cl.NCC(NC(=O)c1cc(-c2cccnc2)c(-c2ccnc3[nH]ccc23)s1)c1ccccc1 (stereo not drawn)
5. CCNC(=O)/C=C/c1n[nH]c2cc(Sc3ccccc3C(=O)NC)ccc12
6. CS(=O)(=O)c1cccc(CNc2nc(Nc3ccc4c(c3)CCC(=O)N4)ncc2C(F)(F)F)c1
7. CCNc1nccc(-c2c(-c3ccc(F)cc3)ncn2C2CCN(C)CC2)n1

Reply:
1. 0
2. 21
3. 0
4. 0
5. 0
6. 0
7. 15

----------
Test system: MEK5
Construct: gene MAP2K5
Settings: concentration: 1 μM, replicates: in singlicate; n = 1
I'd appreciate it if you could supply %Inh values for the items below.
Give bare numbers, in %.

- Compound: "CN(C)CCOc1ccc(-c2cc(-c3ccc(Cl)c(O)c3)c(-c3ccncc3)[nH]2)cc1.Cl.Cl [SB-684387]"
  Reading Unit: "%"
  %Inh: 21
- Compound: "COc1ccc(C2=C(Nc3cccc(O)c3)C(=O)NC2=O)cc1 [SB-390766]"
  Reading Unit: "%"
  %Inh: 17
- Compound: "CS(=O)(=O)c1cccc(CNc2nc(Nc3ccc4c(c3)CCC(=O)N4)ncc2C(F)(F)F)c1"
  Reading Unit: "%"
  %Inh: 48
- Compound: "Cc1cc(-c2c(-c3ccc(F)cc3)ncn2CCCN2CCOCC2)nc(N)n1 [SB-222517]"
  Reading Unit: "%"
  %Inh: 26
- Compound: "COc1cccc(CC(=O)N2CCc3cc(-c4cn(C)c5ncnc(N)c45)ccc32)c1 [GSK2608899]"
  Reading Unit: "%"
  %Inh: 99.7
- Compound: "O=C(Nc1n[nH]c2cc(-c3cccs3)ccc12)C1CC1 [SB-731284]"
  Reading Unit: "%"
  %Inh: 33

The following compounds each have a reported value; give each one's %Inh.
1. COc1cccc(C2=C(Nc3cccc(O)c3)C(=O)NC2=O)c1 [SB-390771]
2. Nc1cccc(-c2ccc3c(N)n[nH]c3c2)c1 [GSK2193613]
3. Cl.Cl.NC(CNC(=O)c1cc(Br)c(-c2ccnc3[nH]ccc23)s1)c1ccccc1 (stereo not shown) [GSK1322949]
4. O=C(Nc1n[nH]c2nc(-c3cccc(O)c3)ccc12)C1CC1 [SB-711805]

Reply:
[71, 64, 59, 95.9]

The following compounds each have a reported value; give each one's %Inh.
1. CCOc1nccc(-c2c(-c3ccc(F)cc3)ncn2C2CCNCC2)n1 [SB-249175]
2. CC(C)c1nc(-c2cccc(NS(=O)(=O)c3c(F)cccc3F)c2)c(-c2ccnc(Nc3ccc(N4CCOCC4)nc3)n2)s1.Cl [GSK1723980]
3. Fc1cc(Cl)ccc1Nc1ccnc2cc(-c3ccc(CN4CCOCC4)o3)ccc12 [GW560109]

Reply:
1: 26; 2: 99.9; 3: 99.8
